Tested on: CCRF-CEM leukemia
assay: NCI-60 one-dose screen, 48 h (100 = growth as untreated, 0 = no growth, -100 = all killed)
conditionInfo: 10 µM
This is part of a sample that, as a whole, favours compounds with a hit. Of some 83,000 tested, about 20% had one in any assay.
# growth listing for each entry below

{"compound": "N#CC1=C(N2CCOCC2)NC2c3ccccc3Sc3ccccc3N2C1=N (stereo not drawn)", "growth, %": 82.7}
{"compound": "COC(=O)/C=C/c1cc(O)c2oc(-c3ccc(O)c(O)c3)c(C(=O)OC)c2c1", "growth, %": 3.32}
{"compound": "O=S(=O)(O)c1ccc2c(c1)Sc1cc(S(=O)(=O)O)ccc1O2", "growth, %": 107}
